System: Aspergillus flavus
Test: Minimum inhibitory concentration, YAG medium
Assay type: cell-based
Conditions: banded MIC grade

>  <Compound>
NC1=NN=C(CCCCOCc2cccc(-c3ccccc3)c2)CS1

>  <MIC grade, A. FLAVUS, YAG media>
2 (2: 1-5 mg/L)

$$$$
>  <Compound>
Cc1cccc(C2=NN=C(N)SC2)c1

>  <MIC grade, A. FLAVUS, YAG media>
1 (1: ≥5 mg/L)

$$$$
>  <Compound>
COc1ccc(C2=NN=C(N)SC2)cc1

>  <MIC grade, A. FLAVUS, YAG media>
2 (2: 1-5 mg/L)

$$$$
>  <Compound>
COCCCCCCC1=NN=C(N)SC1

>  <MIC grade, A. FLAVUS, YAG media>
4 (4: <0.2 mg/L)

$$$$
>  <Compound>
COCCOCCC1=NN=C(N)SC1

>  <MIC grade, A. FLAVUS, YAG media>
2 (2: 1-5 mg/L)

$$$$
>  <Compound>
CCCCCCCC1=CSC(N)=NN1 [5-heptyl-4~{H}-1,3,4-thiadiazin-2-amine]

>  <MIC grade, A. FLAVUS, YAG media>
4 (4: <0.2 mg/L)

$$$$
>  <Compound>
NC1=NN=C(c2ccc(Cl)cc2)CS1

>  <MIC grade, A. FLAVUS, YAG media>
3 (3: 0.2-1 mg/L)

$$$$
>  <Compound>
NC1=NN=C(CCCCCN2C(=O)c3ccccc3C2=O)CS1

>  <MIC grade, A. FLAVUS, YAG media>
4 (4: <0.2 mg/L)

$$$$
>  <Compound>
COCCCCCC1=CSC(=N)NN1C

>  <MIC grade, A. FLAVUS, YAG media>
4 (4: <0.2 mg/L)

$$$$
>  <Compound>
NC1=NN=C(c2ccc(C3CCCCC3)cc2)CS1

>  <MIC grade, A. FLAVUS, YAG media>
1 (1: ≥5 mg/L)

$$$$
>  <Compound>
NC1=NN=C(c2ccccn2)CS1

>  <MIC grade, A. FLAVUS, YAG media>
1 (1: ≥5 mg/L)

$$$$
>  <Compound>
CCCC(C)OCCC1=NN=C(N)SC1 (centres unmarked)

>  <MIC grade, A. FLAVUS, YAG media>
2 (2: 1-5 mg/L)

$$$$
>  <Compound>
CCCCCOc1ccc(CCC2=NN=C(N)SC2)cc1

>  <MIC grade, A. FLAVUS, YAG media>
3 (3: 0.2-1 mg/L)

$$$$
>  <Compound>
CCCCc1ccc(COCCC2=NN=C(N)SC2)cc1

>  <MIC grade, A. FLAVUS, YAG media>
3 (3: 0.2-1 mg/L)

$$$$
>  <Compound>
NC1=NN=C(CCCCOCc2cccc(C3CC3)c2)CS1

>  <MIC grade, A. FLAVUS, YAG media>
3 (3: 0.2-1 mg/L)

$$$$
>  <Compound>
NC1=NN=C(CCOC2CCCCC2)CS1

>  <MIC grade, A. FLAVUS, YAG media>
2 (2: 1-5 mg/L)

$$$$
>  <Compound>
COCCCCOCCC1=NN=C(N)SC1

>  <MIC grade, A. FLAVUS, YAG media>
3 (3: 0.2-1 mg/L)

$$$$
>  <Compound>
COCCCC1=NN=C(N)SC1

>  <MIC grade, A. FLAVUS, YAG media>
4 (4: <0.2 mg/L)

$$$$
>  <Compound>
CCc1ccc(OCCCCC2=NN=C(N)SC2)cc1

>  <MIC grade, A. FLAVUS, YAG media>
4 (4: <0.2 mg/L)

$$$$
>  <Compound>
NC1=NN=C(CCCCOCc2cc(Cl)cc(Cl)c2)CS1

>  <MIC grade, A. FLAVUS, YAG media>
4 (4: <0.2 mg/L)

$$$$
>  <Compound>
NC1=NN=C(CCOc2ccc(Br)cc2)CS1

>  <MIC grade, A. FLAVUS, YAG media>
4 (4: <0.2 mg/L)

$$$$
>  <Compound>
N#Cc1ccc(C2=NN=C(N)SC2)cc1

>  <MIC grade, A. FLAVUS, YAG media>
2 (2: 1-5 mg/L)

$$$$
>  <Compound>
CCCCc1ccc(COCCCCC2=NN=C(N)SC2)cc1

>  <MIC grade, A. FLAVUS, YAG media>
3 (3: 0.2-1 mg/L)

$$$$
>  <Compound>
CC(C)c1ccc(C2=NN=C(N)SC2)cc1

>  <MIC grade, A. FLAVUS, YAG media>
1 (1: ≥5 mg/L)

$$$$
>  <Compound>
NC1=NN=C(CCCCOCCc2ccccc2)CS1

>  <MIC grade, A. FLAVUS, YAG media>
4 (4: <0.2 mg/L)

$$$$
>  <Compound>
CC(=O)OCCCCC1=NN=C(N)SC1

>  <MIC grade, A. FLAVUS, YAG media>
4 (4: <0.2 mg/L)

$$$$
>  <Compound>
NC1=NN=C(CCCCOCCCc2ccc(F)cc2F)CS1

>  <MIC grade, A. FLAVUS, YAG media>
4 (4: <0.2 mg/L)

$$$$
>  <Compound>
CCCCc1ccc(OCCCCCC2=NN=C(N)SC2)cc1

>  <MIC grade, A. FLAVUS, YAG media>
2 (2: 1-5 mg/L)

$$$$
>  <Compound>
NC1=NN=C(CCCCc2ccccc2)CS1

>  <MIC grade, A. FLAVUS, YAG media>
4 (4: <0.2 mg/L)

$$$$
>  <Compound>
CCc1cccc(OCCCCCC2=NN=C(N)SC2)c1

>  <MIC grade, A. FLAVUS, YAG media>
4 (4: <0.2 mg/L)

$$$$
>  <Compound>
Cc1ccc(OCCC2=NN=C(N)SC2)cc1

>  <MIC grade, A. FLAVUS, YAG media>
3 (3: 0.2-1 mg/L)

$$$$
>  <Compound>
NC1=NN=C(CCOc2ccccc2)CS1

>  <MIC grade, A. FLAVUS, YAG media>
3 (3: 0.2-1 mg/L)

$$$$
>  <Compound>
CCOC(=O)c1cccc(C2=NN=C(N)SC2)c1

>  <MIC grade, A. FLAVUS, YAG media>
1 (1: ≥5 mg/L)

$$$$
>  <Compound>
NC1=NN=C(CCCCc2cc3ccccc3o2)CS1

>  <MIC grade, A. FLAVUS, YAG media>
4 (4: <0.2 mg/L)

$$$$
>  <Compound>
NC1=NN=C(CCCCCOc2ccc(F)cc2)CS1

>  <MIC grade, A. FLAVUS, YAG media>
4 (4: <0.2 mg/L)

$$$$
>  <Compound>
COCCCCC1=NN=C(N)SC1

>  <MIC grade, A. FLAVUS, YAG media>
3 (3: 0.2-1 mg/L)

$$$$
>  <Compound>
NC1=NN=C(CCCCC(=O)Nc2ccccc2)CS1

>  <MIC grade, A. FLAVUS, YAG media>
3 (3: 0.2-1 mg/L)

$$$$
>  <Compound>
NC1=NN=C(CCCCOCc2cccc(Br)c2)CS1

>  <MIC grade, A. FLAVUS, YAG media>
4 (4: <0.2 mg/L)

$$$$
>  <Compound>
NC1=NN=C(CCCCCOc2ccccn2)CS1

>  <MIC grade, A. FLAVUS, YAG media>
4 (4: <0.2 mg/L)

$$$$
>  <Compound>
NC1=NN=C(CCCCOCc2ccc(Cl)c(F)c2)CS1

>  <MIC grade, A. FLAVUS, YAG media>
4 (4: <0.2 mg/L)

$$$$
>  <Compound>
NC1=NNC2=C(CCCC2)S1

>  <MIC grade, A. FLAVUS, YAG media>
1 (1: ≥5 mg/L)

$$$$
>  <Compound>
CCCCc1cccc(COCCCCC2=NN=C(N)SC2)c1

>  <MIC grade, A. FLAVUS, YAG media>
3 (3: 0.2-1 mg/L)

$$$$
>  <Compound>
NC1=NN=C(CC(=O)OCc2ccccc2)CS1

>  <MIC grade, A. FLAVUS, YAG media>
1 (1: ≥5 mg/L)

$$$$
>  <Compound>
NC1=NN=C(CCOCc2ccccc2)CS1

>  <MIC grade, A. FLAVUS, YAG media>
3 (3: 0.2-1 mg/L)

$$$$
>  <Compound>
NC1=NN=C(CCCCSCc2ccc(Cl)cc2)CS1

>  <MIC grade, A. FLAVUS, YAG media>
4 (4: <0.2 mg/L)

$$$$
>  <Compound>
NC1=NN=C(CCCCOCc2cccc(Cl)c2)CS1

>  <MIC grade, A. FLAVUS, YAG media>
4 (4: <0.2 mg/L)

$$$$
>  <Compound>
NC1=NNC(c2cccc3ccccc23)=CS1

>  <MIC grade, A. FLAVUS, YAG media>
1 (1: ≥5 mg/L)

$$$$
>  <Compound>
NC1=NN=C(CCCCOCc2cccc(Oc3ccccc3)c2)CS1

>  <MIC grade, A. FLAVUS, YAG media>
2 (2: 1-5 mg/L)

$$$$
>  <Compound>
CCc1cccc(COCCCCC2=NN=C(N)SC2)c1

>  <MIC grade, A. FLAVUS, YAG media>
4 (4: <0.2 mg/L)

$$$$
>  <Compound>
Cc1cccc(COCCCCC2=NN=C(N)SC2)c1

>  <MIC grade, A. FLAVUS, YAG media>
3 (3: 0.2-1 mg/L)

$$$$
>  <Compound>
COc1ccc(COCCCCC2=NN=C(N)SC2)cc1

>  <MIC grade, A. FLAVUS, YAG media>
2 (2: 1-5 mg/L)

$$$$
>  <Compound>
CCCCCCOCCC1=NN=C(N)SC1

>  <MIC grade, A. FLAVUS, YAG media>
4 (4: <0.2 mg/L)

$$$$
>  <Compound>
CCc1ccc(OCCCCCC2=NN=C(N)SC2)cc1

>  <MIC grade, A. FLAVUS, YAG media>
4 (4: <0.2 mg/L)

$$$$
>  <Compound>
CCCCOC(=O)c1ccc(C2=NN=C(N)SC2)cc1

>  <MIC grade, A. FLAVUS, YAG media>
3 (3: 0.2-1 mg/L)

$$$$
>  <Compound>
CCOC(=O)c1ccc(C2=CSC(N)=NN2)cc1

>  <MIC grade, A. FLAVUS, YAG media>
4 (4: <0.2 mg/L)

$$$$
>  <Compound>
NC1=NN=C(CCCCOc2ccccc2)CS1

>  <MIC grade, A. FLAVUS, YAG media>
4 (4: <0.2 mg/L)

$$$$
